System: CAL-85-1
test_description: normalised viability (% of control), CellTiter-Blue; higher = more viable cells (about 100 = DMSO control)
measurement_context: 3 nM; incubation time: 72 h
Exam item: assign 1 to entries whose normalised viability is below 90% and 0 to entries at or above 90%. Note that a value of exactly 90% receives 0.

These solved cases illustrate the format of a correct answer.
COc1cc2c(Oc3ccc4[nH]c(C)cc4c3F)ncnc2cc1OCCCN1CCCC1	0
NCCCNCCSP(=O)(O)O	0
N#Cc1ccc(C(c2ccc(C#N)cc2)n2cncn2)cc1	1
CCCCC(=O)OCC(=O)[C@]1(O)Cc2c(O)c3c(c(O)c2[C@@H](O[C@H]2C[C@H](NC(=O)C(F)(F)F)[C@H](O)[C@H](C)O2)C1)C(=O)c1c(OC)cccc1C3=O	1

Incoming: normalised viability strictly < 90% for this molecule? CC[C@@H]1C(=O)N(C)c2cnc(Nc3ccc(C(=O)NC4CCN(C)CC4)cc3OC)nc2N1C1CCCC1
Outgoing: 1
